Some compounds, each annotated with its measured inhibition at 1 µM.
- assayed_system: human μ-opiate receptor (Homo sapiens, UniProt P35372)
- Construct: purchased Nen company, Zaventem, Belgium RB-HOM; host or cells: CHO-K1 cells (membrane preparation)
- Sequence (P35372 whole entry): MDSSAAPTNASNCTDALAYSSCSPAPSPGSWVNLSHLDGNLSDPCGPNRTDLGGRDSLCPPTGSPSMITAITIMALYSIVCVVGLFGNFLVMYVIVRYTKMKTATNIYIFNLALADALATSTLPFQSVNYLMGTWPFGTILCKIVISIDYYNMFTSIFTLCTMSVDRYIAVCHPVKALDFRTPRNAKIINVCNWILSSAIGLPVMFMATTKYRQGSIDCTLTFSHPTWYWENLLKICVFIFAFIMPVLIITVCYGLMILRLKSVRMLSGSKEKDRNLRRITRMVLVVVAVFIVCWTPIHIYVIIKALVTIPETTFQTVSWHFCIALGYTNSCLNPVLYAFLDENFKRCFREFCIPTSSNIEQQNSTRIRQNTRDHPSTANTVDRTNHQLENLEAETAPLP
- protocol_notes: Affinity for the human μ-opiate receptor ([3H]-naloxone displacement, SPA, CHO-K1 membrane preparation)
- test_context: test substance 1 μmole/l; displacement of 1 nmole/l [3H]-naloxone; percentage inhibition of the specific binding; read-out: μ-opioid receptor, % inhibition [1 μM]
Entry format: amount then unit.

compound | assayed_system | inhibition at 1 µM
COc1ccc(N2CCN(C(c3nc(Cc4ccccc4)c(N4CC(C)OC(C)C4)o3)C3CCC(C(c4cccs4)N(C)C)CC3)CC2)cc1 (stereo not drawn) [compound 145] | human μ-opiate receptor (Homo sapiens, UniProt P35372) | 69%
CCN(CC)c1oc(C(CC2CCC(C(c3ccc(F)cc3)N(C)C)CC2)N(CC)CC)nc1Cc1ccccc1 (stereo not drawn) [compound 98] | human μ-opiate receptor (Homo sapiens, UniProt P35372) | 77%
CCN(CC)C(CC1CCC(C(c2ccc(F)cc2)N(C)C)CC1)c1nc(Cc2ccccc2)c(N2CCC(Cc3ccccc3)CC2)o1 (stereo not drawn) [compound 67] | human μ-opiate receptor (Homo sapiens, UniProt P35372) | 64%
COc1ccc(N2CCN(C(CC3CCC(C(c4cccs4)N(C)C)CC3)c3nc(Cc4ccccc4)c(N4CCCC4)o3)CC2)cc1 (stereo not drawn) [compound 163] | human μ-opiate receptor (Homo sapiens, UniProt P35372) | 83%
CC1CCN(c2oc(C(C3CCC(C(c4cccs4)N(C)C)CC3)N3CCCCC3)nc2Cc2ccccc2)CC1 (stereo not drawn) [compound 24] | human μ-opiate receptor (Homo sapiens, UniProt P35372) | 70%

Give inhibition at 1 µM for the following compound: CCN(CC)C(c1nc(Cc2ccccc2)c(N2CCN(Cc3ccccc3)CC2)o1)C1CCC(C(c2cccs2)N(C)C)CC1 (stereo not drawn) [compound 28]
72%

Give inhibition at 1 µM for the following compound: CCN(CC)c1oc(C(CC2CCC(C(c3ccc(Cl)cc3)N(C)C)CC2)N2CCCCC2)nc1Cc1ccccc1 (stereo not drawn) [compound 87]
64%

Give inhibition at 1 µM for the following compound: CN(C)C(c1ccc(F)cc1)C1CCC(CC(c2nc(Cc3ccccc3)c(N3CCSCC3)o2)N(C)c2ccccc2)CC1 (stereo not drawn) [compound 104]
89%

Give inhibition at 1 µM for the following compound: COc1ccc(N2CCN(c3oc(C(C4CCC(C(c5cccs5)N(C)C)CC4)N4CCOCC4)nc3Cc3ccccc3)CC2)cc1 (stereo not drawn) [compound 140]
67%

Give inhibition at 1 µM for the following compound: CC1CCCN(c2oc(C(CC3CCC(C(c4cccs4)N(C)C)CC3)N3CCCCC3)nc2Cc2ccccc2)C1 (stereo not drawn) [compound 111]
92%

Give inhibition at 1 µM for the following compound: CCN(CC)c1oc(C(C2CCC(C(c3ccc(Cl)cc3)N(C)C)CC2)N2CCCCC2)nc1Cc1ccccc1 (stereo not drawn) [compound 39]
75%

Give inhibition at 1 µM for the following compound: CCN(CC)C(c1nc(Cc2ccccc2)c(N2CC(C)CC(C)C2)o1)C1CCC(C(c2ccc(Cl)cc2)N(C)C)CC1 (stereo not drawn) [compound 41]
64%

Give inhibition at 1 µM for the following compound: CN(C)C(c1cccs1)C1CCC(C(c2nc(Cc3ccccc3)c(N3CCN(c4ccccc4)CC3)o2)N2CCCCC2)CC1 (stereo not drawn) [compound 26]
85%

----------
Some molecules, each annotated with its measured inhibition at 1 µM.
- assayed_system: human μ-opiate receptor (Homo sapiens)
- Construct: purchased Nen company, Zaventem, Belgium RB-HOM; host or cells: CHO-K1 cells (membrane preparation)
- protocol_notes: Affinity for the human μ-opiate receptor ([3H]-naloxone displacement, SPA, CHO-K1 membrane preparation)
- test_context: test substance 1 μmole/l; displacement of 1 nmole/l [3H]-naloxone; percentage inhibition of the specific binding; read-out: μ-opioid receptor, % inhibition [1 μM]
Numbers only here, please. The scale is %.

Give inhibition at 1 µM for the following molecule: CC1CC(C)CN(c2oc(C(C3CCC(C(c4cccs4)N(C)C)CC3)N3CCN(Cc4ccccc4)CC3)nc2Cc2ccccc2)C1 (stereo not shown) [compound 53]
86

----------
- assayed_system: human μ-opiate receptor (Homo sapiens, UniProt P35372)
- Construct: purchased Nen company, Zaventem, Belgium RB-HOM; host or cells: CHO-K1 cells (membrane preparation)
- protocol_notes: Affinity for the human μ-opiate receptor ([3H]-naloxone displacement, SPA, CHO-K1 membrane preparation)
- test_context: test substance 1 μmole/l; displacement of 1 nmole/l [3H]-naloxone; percentage inhibition of the specific binding; read-out: μ-opioid receptor, % inhibition [1 μM]
Some molecules, each annotated with its measured inhibition at 1 µM.
Numbers only here, please. The scale is %.

Examples from the recorded data:
molecule | inhibition at 1 µM [%]
CN(C)C(c1cccs1)C1CCC(C(c2nc(Cc3ccccc3)c(N3CCCC3)o2)N2CCOCC2)CC1 (stereo not shown) [compound 138] | 91
CC1CCCN(c2oc(C(CC3CCC(C(c4cccs4)N(C)C)CC3)N(C)c3ccccc3)nc2Cc2ccccc2)C1 (stereo not shown) [compound 117] | 99
CC1CN(c2oc(C(C3CCC(C(c4ccc(Cl)cc4)N(C)C)CC3)N3CCOCC3)nc2Cc2ccccc2)CC(C)O1 (stereo not shown) [compound 132] | 64

Could you now consider this next molecule?
Give inhibition at 1 µM for the following molecule: CC1CC(C)CN(c2oc(C(C3CCC(C(c4cccs4)N(C)C)CC3)N3CCCCC3)nc2Cc2ccccc2)C1 (stereo not shown) [compound 45]
71

----------
- assayed_system: human μ-opiate receptor (Homo sapiens)
- Construct: purchased Nen company, Zaventem, Belgium RB-HOM; host or cells: CHO-K1 cells (membrane preparation)
- protocol_notes: Affinity for the human μ-opiate receptor ([3H]-naloxone displacement, SPA, CHO-K1 membrane preparation)
- test_context: test substance 1 μmole/l; displacement of 1 nmole/l [3H]-naloxone; percentage inhibition of the specific binding; read-out: μ-opioid receptor, % inhibition [1 μM]
Returns one of criterion met or criterion not met; criterion met when inhibition at 1 µM is >= 70%.

Recorded results for 5 compounds are shown here.
compound | class_label
CCN(CC)C(c1nc(Cc2ccccc2)c(N(C)CCc2ccccc2)o1)C1CCC(C(c2cccs2)N(C)C)CC1 (stereo not drawn) | criterion met
CC1CN(c2oc(C(CC3CCC(C(c4cccs4)N(C)C)CC3)N3CCOCC3)nc2Cc2ccccc2)CC(C)O1 (stereo not drawn) | criterion met
CCN(CC)C(CC1CCC(C(c2ccc(Cl)cc2)N(C)C)CC1)c1nc(Cc2ccccc2)c(N(C)Cc2ccccc2)o1 (stereo not drawn) | criterion met
CCN(CC)c1oc(C(CC2CCC(C(c3ccc(Cl)cc3)N(C)C)CC2)N2CCN(Cc3ccccc3)CC2)nc1Cc1ccccc1 (stereo not drawn) | criterion met
CN(C)C(c1cccc(F)c1)C1CCC(CC(c2nc(Cc3ccccc3)c(N3CCOCC3)o2)N2CCOCC2)CC1 (stereo not drawn) | criterion met

Identify whether the reported inhibition at 1 µM of the following compound is 70% or greater: CN(C)C(c1cccs1)C1CCC(CC(c2nc(Cc3ccccc3)c(N3CCN(Cc4ccccc4)CC3)o2)N2CCCCC2)CC1 (stereo not drawn)
criterion met

Identify whether the reported inhibition at 1 µM of the following compound is 70% or greater: CCN(CC)C(CC1CCC(C(c2ccc(F)cc2)N(C)C)CC1)c1nc(Cc2ccccc2)c(N2CCSCC2)o1 (stereo not drawn)
criterion not met

Identify whether the reported inhibition at 1 µM of the following compound is 70% or greater: CN(C)C(c1ccc(Cl)cc1)C1CCC(CC(c2nc(Cc3ccccc3)c(N3CCN(Cc4ccccc4)CC3)o2)N2CCN(Cc3ccccc3)CC2)CC1 (stereo not drawn)
criterion met

Identify whether the reported inhibition at 1 µM of the following compound is 70% or greater: CCN(CC)C(CC1CCC(C(c2cccs2)N(C)C)CC1)c1nc(Cc2ccccc2)c(N(C)CCc2ccccc2)o1 (stereo not drawn)
criterion met

Identify whether the reported inhibition at 1 µM of the following compound is 70% or greater: COc1ccc(N2CCN(C(c3nc(Cc4ccccc4)c(N4CCCC4)o3)C3CCC(C(c4cccs4)N(C)C)CC3)CC2)cc1 (stereo not drawn)
criterion met

Identify whether the reported inhibition at 1 µM of the following compound is 70% or greater: CN(Cc1ccccc1)c1oc(C(CC2CCC(C(c3cccs3)N(C)C)CC2)N2CCN(Cc3ccccc3)CC2)nc1Cc1ccccc1 (stereo not drawn)
criterion met

Identify whether the reported inhibition at 1 µM of the following compound is 70% or greater: COc1ccc(N2CCN(C(c3nc(Cc4ccccc4)c(N4CCOCC4)o3)C3CCC(C(c4cccc(F)c4)N(C)C)CC3)CC2)cc1 (stereo not drawn)
criterion not met

----------
- assayed_system: human μ-opiate receptor (Homo sapiens, UniProt P35372)
- Construct: purchased Nen company, Zaventem, Belgium RB-HOM; host or cells: CHO-K1 cells (membrane preparation)
- protocol_notes: Affinity for the human μ-opiate receptor ([3H]-naloxone displacement, SPA, CHO-K1 membrane preparation)
- test_context: test substance 1 μmole/l; displacement of 1 nmole/l [3H]-naloxone; percentage inhibition of the specific binding
Some compounds, each annotated with its measured μ-opioid receptor, % inhibition [1 μM].
Numbers only here, please. The scale is %.

Examples from the recorded data:
compound | μ-opioid receptor, % inhibition [1 μM] / %
CN(CCc1ccccc1)c1oc(C(C2CCC(C(c3ccc(F)cc3)N(C)C)CC2)N(C)c2ccccc2)nc1Cc1ccccc1 (stereo not drawn) | 62
CN(C)C(c1cccs1)C1CCC(C(c2nc(Cc3ccccc3)c(N3CCCC3)o2)N2CCN(c3ccc(F)cc3)CC2)CC1 (stereo not drawn) | 85
CN(CCc1ccccc1)c1oc(C(C2CCC(C(c3ccc(Cl)cc3)N(C)C)CC2)N(C)c2ccccc2)nc1Cc1ccccc1 (stereo not drawn) | 72
CN(CCc1ccccc1)c1oc(C(CC2CCC(C(c3ccc(F)cc3)N(C)C)CC2)N(C)c2ccccc2)nc1Cc1ccccc1 (stereo not drawn) | 77
CN(Cc1ccccc1)c1oc(C(C2CCC(C(c3ccc(Cl)cc3)N(C)C)CC2)N(C)c2ccccc2)nc1Cc1ccccc1 (stereo not drawn) | 64

Could you now consider this next compound?
Give μ-opioid receptor, % inhibition [1 μM] for the following compound: CCN(CC)c1oc(C(CC2CCC(C(c3ccc(F)cc3)N(C)C)CC2)N(C)c2ccccc2)nc1Cc1ccccc1 (stereo not drawn)
79
